- ASSAYED TARGET: Human recombinant 5-HT1A (Homo sapiens)
- Sequence (P08908 whole entry): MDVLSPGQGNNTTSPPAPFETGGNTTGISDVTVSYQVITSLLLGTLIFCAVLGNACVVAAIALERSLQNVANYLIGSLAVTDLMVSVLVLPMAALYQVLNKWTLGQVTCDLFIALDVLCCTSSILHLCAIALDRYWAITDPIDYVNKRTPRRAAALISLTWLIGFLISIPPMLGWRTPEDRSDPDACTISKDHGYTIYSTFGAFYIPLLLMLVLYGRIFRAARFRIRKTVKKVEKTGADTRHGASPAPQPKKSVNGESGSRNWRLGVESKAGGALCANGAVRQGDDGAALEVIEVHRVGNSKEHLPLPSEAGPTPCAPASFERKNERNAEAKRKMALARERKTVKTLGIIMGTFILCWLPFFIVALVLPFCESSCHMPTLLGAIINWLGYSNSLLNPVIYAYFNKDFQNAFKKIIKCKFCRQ
- TEST DETAILS: Serotonin 5HT1A radioligand binding assay
- SETUP CONDITIONS: [3H]-8-OH-DPAT
ENDPOINT: pKi
Recall that pKi is obtained by taking minus log10 of the concentration measured in molar.

**Q:** Given the entry O=C1COc2ccc(OCCCCN3CCN(c4cccc(Cl)c4Cl)CC3)cc2N1 , what pKi was observed with Human recombinant 5-HT1A (Homo sapiens)?
**A:** 9.19

Origin of measurements: patent US20180071298A1
